test system: IGROV-1; experiment: NCI tumour cell line growth inhibition, 48 h
Activity calls are given as the source filed them. No stated cut-off is given here; in the data, active = GI50 up to about 1.1 µM and inactive = higher.
Choose the fitting class; nothing outside active, inactive is accepted.

# Compound, Answer label
measured = [
    ("COC(=O)/C=C/C1C(C(=O)OC)C2(C(=O)OC)CCC1(C(=O)OC)N2 (centres undefined)", "inactive"),
    ("CC1OC(CC(=O)O)CC2=C1C(=O)c1c(O)cccc1C2=O (centres undefined) [NANAOMYCIN]", "active"),
    ("CCN(CC)c1ccc2c(c1)Oc1ccc(N(C(C)=O)c3ccccc3)cc1C21OC(=O)c2ccccc21 (centres undefined)", "inactive"),
    ("CN1C(=O)C(=CNc2ccc(Cl)cc2Cl)C(=O)N(C)C1=O", "inactive"),
    ("COC(=O)CC1(CNC(=O)OCc2ccccc2)OCCO1", "inactive"),
    ("COc1cc(C2SC(=N)Nc3c2c(C)nn3C(=O)c2ccccc2O)cc(OC)c1OC (centres undefined)", "inactive"),
]

Task: Lab log entry: `CCc1cc2c(cc1O)CC[C@@H]1[C@@H]2CC[C@]2(C)[C@@H](O)CC[C@@H]12` — outcome as called in the assay?
Result: inactive

Task: Status in this test for O=C(CC(C(=O)c1ccsc1)c1ccsc1)c1ccsc1 (centres undefined) ?
Result: inactive

Task: Called result for CCSC(=O)C1(C)OC2CCCCC2C1=O (centres undefined)
Result: inactive

Task: Test call for this compound, please: `Cc1c2ccccc2cc2cccc[n+]12`
Result: inactive

Task: Given CC(C)(C)c1ccc(O)c(C(O)c2cccnc2)c1 (centres undefined) , state the outcome it received in this test.
Result: inactive

Task: Please state the recorded outcome for this compound: C=C1C(=O)OC2C1C(OC(=O)/C(C)=C\C)CC1(CO1)C1C(O)C=C(C)C21O (centres undefined)
Result: inactive

Task: Field: outcome | Entry: CC12CC(C/C1=N/O)C(C)(C)C2 (centres undefined)
Result: inactive

Task: Recorded call for O=C1CCCCCCCCCCC1CN1CCCC1 (centres undefined) ?
Result: inactive

---

test system: CCRF-CEM; test: NCI tumour cell line growth inhibition, 48 h
Active and inactive are the calls of the source. Cut-off read from the data, not from the text of the source: active = GI50 up to about 1.1 µM and inactive = higher.
Valid outcomes are listed here; reply with one: class 1 for active, class 0 for inactive

# Compound, Answer label
rows = [
    ("CCN(CC)c1ccc2c(c1)Oc1ccc(N(C(C)=O)c3ccccc3)cc1C21OC(=O)c2ccccc21 (stereo not given)", "class 0"),
    ("CC(=O)OCC1OC(n2cc(F)c(=O)[nH]c2=O)C(NC(=O)OCc2ccccc2)C(OC(C)=O)C1OC(C)=O (stereo not given)", "class 0"),
    ("CCCCCCCCNC(=O)SCCCC", "class 0"),
    ("Cc1nn(CNc2ccc(F)c(Cl)c2)c(=S)n1/N=C/c1ccc(-c2ccc(Cl)cc2Cl)o1", "class 0"),
    ("CC1OC(CC(=O)O)CC2=C1C(=O)c1c(O)cccc1C2=O (stereo not given)", "class 1"),
    ("CO/N=C1\\CC(C)N2C(=O)C(C(C)C)NC(=O)C(NC(=O)c3c4nc5c(C(=O)NC6C(=O)NC(C(C)C)C(=O)N7C(C)CC(O)C7C(=O)N(C)CC(=O)N(C)C(C(C)C)C(=O)OC6C)ccc(C)c5oc-4c(C)c(=O)c3N)C(CO)OC(=O)C(C)N(C)C(=O)CN(C)C(=O)C12 (stereo not given)", "class 1"),
]

Task: Kindly provide the recorded test outcome for the following compound: `COC(=O)c1c(OC(C)=O)ccc2c1c1c(n2Cc2ccccc2)C(=O)c2ccccc2C1=O`
Result: class 0

Task: Called result for `CCOC(=O)c1c(C)noc1/N=N/N(CCO)CCO`
Result: class 0

Task: What is the recorded call for this compound in the test? `COC(=O)c1c(-c2ccccc2)c2sc3ccccc3n2c1N`
Result: class 0

Task: Hey, what did the test say about C=C1C(=O)C[C@@]23CCC[C@@]12CC(O)C3 (stereo not given in full) ?
Result: class 0

Task: For this compound, state the assay outcome: CCOP(=O)(OCC)C1=NC=CC=CC1n1c(-c2ccccc2)nn(CC)c1=O (stereo not given)
Result: class 0

Task: Record request — test call for `COc1ccc(Cc2coc3ccccc3c2=O)cc1OC`
Result: class 0

Task: Write down the call the test reported for this compound. Item: `COC(=O)/C=C(\C(=O)OC)c1cc(C)c2cc(C(C)C)ccc(C)c1-2`
Result: class 0

Task: Test call, this compound: COc1ccc(COC2CC(OC)OC(C)C2OC(=O)c2ccccc2)cc1 (stereo not given)
Result: class 0

Task: What was the test verdict on O=C(O)C(O)C(O)C(O)C(O)CO.[Ba+2] (stereo not given) ?
Result: class 0

---

system: HL-60; assay: NCI tumour cell line growth inhibition, 48 h
Calls of active or inactive are those of the source. Cut-off read from the data, not from the text of the source: active = GI50 up to about 1.1 µM and inactive = higher.
Could you please pick one outcome from this set? active, inactive

# Compound, Answer label
data = [
    ("CC(C)c1ccccc1NC(=O)C(=O)Cc1nc2ccccc2s1", "inactive"),
    ("Cc1ccc(NC(=O)CCC(=O)C2Cc3ccccc3C2=O)cc1C (stereo unspecified)", "inactive"),
    ("CCOC(=O)/C(=C/c1ccc(C#N)cc1)N(CC)CC", "inactive"),
    ("COc1cc(N/N=C/C#N)cc(OC)c1OC", "inactive"),
    ("Cc1ccc(-c2nc(-c3cnccn3)n(C3OC(CO)C(O)C(O)C3O)n2)cc1 (stereo unspecified)", "inactive"),
    ("COC(=O)CC1(CNC(=O)OCc2ccccc2)OCCO1", "inactive"),
]

Task: Per the assay record, what outcome was assigned to `Cc1ccccc1NC(=O)Cc1csc2[n+]1C(=O)/C(=C/c1ccc([N+](=O)[O-])cc1)S2` ?
Result: inactive

Task: Tell me the assay call for `O=C(/C=C(\O)c1cc(-c2ccccc2)n(-c2ccccc2)n1)c1ccccc1` please.
Result: inactive

Task: Recorded test call requested for `Cc1cc(S(=O)(=O)n2ccnc2Oc2ccccc2)c(SSc2cc(Cl)c(C)cc2S(=O)(=O)n2ccnc2Oc2ccccc2)cc1Cl`
Result: inactive

---

system: SK-MEL-28; experiment: NCI tumour cell line growth inhibition, 48 h
Active and inactive are the calls of the source. Cut-off read from the data, not from the text of the source: active = GI50 up to about 1.1 µM and inactive = higher.
Assay readout: GI50

Some solved entries appear below for comparison.
# Molecule, GI50
measured = [
    ("Cc1c(O)nc(-n2[nH]c3c(c2=O)CCCC3)[nH]c1=O", "> 100 µM (inactive)"),
    ("CC(C1=CC=C2[C@@H]3CCC4CC(N(C)C)CC[C@]4(C)C3CC[C@]12C)N(C)C=O (stereo partly drawn)", "> 100 µM (inactive)"),
]

Now examine the next entry.
Task: // returns reported GI50 for input CC12CC(C/C1=N/O)C(C)(C)C2 (stereo not drawn)
Result: > 100 µM (inactive)

---

tested on: Malme-3M; test: NCI tumour cell line growth inhibition, 48 h
Calls of active or inactive are those of the source. Cut-off read from the data, not from the text of the source: active = GI50 up to about 1.1 µM and inactive = higher.
Pick from 1 (yes) (active), 0 (no) (inactive) when you respond.

# Molecule, Answer label
measured = [
    ("Cc1ccc(-c2n[nH]c(CC#N)n2)cc1", "0 (no)"),
    ("O=Cc1c(C(=O)O)[nH]c(=O)[nH]c1=O", "0 (no)"),
]

Task: Recorded call for `C/C(=N\NC(=S)N1CCN(c2ccccn2)CC1)c1cccc(C)n1` ?
Result: 0 (no)

Task: Could you check what this test reported for `O=C(O)c1ccc(OCc2ccccc2)c(Cl)c1` ?
Result: 0 (no)

Task: // param item: CCOC(=O)C1=C(OC(OCC)C([Se]c2ccccc2)C(C)C)CCC1 (stereo not given) ; yields the recorded call
Result: 0 (no)

Task: Write down the call the test reported for this molecule. Item: `Cn1c(-c2cccs2)cc(-c2ccsc2)c1-c1ccsc1`
Result: 0 (no)

Task: Hey, what did the test say about `Brc1ccc(/C(N=N/C(=N\Sc2ccccc2)c2ccc(Br)cc2)=N/Sc2ccccc2)cc1` ?
Result: 0 (no)

---

system: OVCAR-5; assay: NCI tumour cell line growth inhibition, 48 h
The source made the active and inactive calls. No stated cut-off is given here; in the data, active = GI50 up to about 1.1 µM and inactive = higher.
Could you please pick one outcome from this set? active, inactive

# Molecule, Target or test system, Answer label
measured = [
    ("Cc1nc(Nc2ccc(Cl)cc2)sc1C(=O)Nc1cccc2c(=O)[nH][nH]c(=O)c12", "OVCAR-5", "inactive"),
]

Pending molecule:
Task: Outcome? CCOC(=O)[C@H]1Nc2c(cccc2[N+](=O)[O-])C2c3ccccc3CC21 (stereo not given in full)
Result: inactive

---

Listed here are compounds together with their documented GI50.
system: SNB-19; test: NCI tumour cell line growth inhibition, 48 h
Calls of active or inactive are those of the source. Cut-off read from the data, not from the text of the source: active = GI50 up to about 1.1 µM and inactive = higher.

// below: answered compounds
# Compound, Reading
rows = [
    ("NNC(=O)Nc1nc2ccc(NN)cc2[nH]1", "58.5 µM (inactive)"),
    ("CC(C)=CCN1c2ccccc2[C@@]2(CC=C(C)C)CCN(C)[C@@H]12 [(+)-DEBROMOFLUSTRAMINE B]", "22.3 µM (inactive)"),
    ("Cc1c2ccnc(-c3ccccc3)c2cc2c1[nH]c1ccccc12", "3.66 µM (inactive)"),
    ("COc1cc2ccnc(-c3n[nH]c4cc(OC)c(OC)cc34)c2cc1OC", "> 100 µM (inactive)"),
    ("Cn1cc(C(=O)c2ccccc2)cc(C(=O)c2ccccc2)c1=O", "> 100 µM (inactive)"),
    ("Cc1cc(N)ccc1/N=N\\c1ccc(S(=O)(=O)CCOS(=O)(=O)O)cc1", "4.72 µM (inactive)"),
    ("Cc1nc(Nc2ccc(Cl)cc2)sc1C(=O)Nc1cccc2c(=O)[nH][nH]c(=O)c12", "43.3 µM (inactive)"),
    ("CC(NC(=O)C(N)CC(=O)O)NC(=O)N(C)C(C)(C)C (stereo unspecified)", "> 100 µM (inactive)"),
]

Task: Look up GI50: CC[S+]([O-])C(=O)N(O)c1ccc(Cl)cc1 (stereo unspecified)
Result: 60.7 µM (inactive)

Task: Entry `COC(=O)/C=C(\C(=O)OC)c1cc(C)c2cc(C(C)C)ccc(C)c1-2` has what GI50?
Result: > 100 µM (inactive)

Task: Using the record for `Cc1ccc(-c2n[nH]c(=O)n2/N=C\c2ccccc2O)cc1` , report its GI50.
Result: > 100 µM (inactive)
